Measured % residual fluorescence of labeled mAb accompanies every entry in the list below.
Study system: T1, human CD3 (human, UniProt P07766 23-207; P09693 23-182; P04234 22-171)
T1 construct: whole, on cells; also called CD3 on Jurkat T cells; CD3 on primary human T cells
Experiment summary: flow competition on Jurkat, 100 nM unlabeled mAb; competitor AF488-UCHT1 5 nM
Value expressed in %; do not type the unit.

F332-5F2 (antibody, mouse IgG2b, V domains shown, also called F332-5F2-2; F332-5F2 (6G8, 13A3)) VH: QVQLQQPGAELGKPGTSVKLSCKASGYTFTSYWMHWVKQRPGQGLEWIGNINPNGGDSNYNEKFKSKATLTVDKSSSTAYMQLSTLTSEDSAVYYCTRDISGQYYFDFWGQGTSLTVFS VL: DILMSQSPSSLAVSAGEQVTMSCKSSQSLLNSRTRKNYLAWYQQKPGQSPKLLIFWASTRKSGVPDRFTGSGSGTYFTLTISSVQAEDLAVYYCTQSYNLRTFGGGTKLEIK : 74
F332-6D7 (antibody, mouse IgG2a, V domains shown, also called F332-6D7-2; F332-6D7 (7G4)) VH: QVQLQQPGAELGKPGTSVNLSCKASGYTFTSYWMHWVKQRPGQGLDWIGNINPNSGTTNYNEKFKSKATLTVDKSSSTAYMQLSTLTSEDSAVYYCTRDISGQYYFDYWGQGTSLTVSS VL: DIVMSQSPSSLAVSAGEKVTMSCKSSQSLLNSRTRKNYLAWYQQKPGQSPKLLIYWASTRESGVPDRFTGSGSGTDFTLTISSVQAEDLAVYYCKQSYSLRTFGGGSKLEIK : 73
F332-12F6 (antibody, mouse IgG2a, V domains shown, also called F332-12F6-2) VH: QVQLQQPGAELGKPGTSVKLSCKASGYTFTSYWIHWVKQRPGQGLEWIGNINPNSGSTNYNEKFKSKATLTVDKSSSTAYMQLSTLTSEDSAVYYCTRDISGQYYFDYWGQGTTLTVSS VL: DIVMSQSPSSLAVSAGEKVTMSCKSSQSLLNSRTRKSYLAWYQQKPGQSPKLLIYWASTRESGVPDRFTGSGSGTDFTLTISSVQAEDLAVYYCIQSYNLRTFGGGTKLEIK : 63

Now look at this entry.
Q: Could you share which % residual fluorescence of labeled mAb value was measured for F332-3E9 (antibody, mouse IgG2a, V domains shown, also called F332-3E9-2; F332-3E9 (12G4)) VH: QVQLQQPGAELGKPGTSVKLSCKASGYTFTSYWIHWLKQRPGQGLEWIGNINPNGGSINCNEKFTTKATLTIDKSSSTAYMQLSTLTSEDFAVYYCTRDTSGQYYFDYWGQGTTLTVSS VL: DIMMSQSPSSLAVSAGEKVTMSCKSSQSLLNSRTRKNYLAWYQQKPGQSPKLLIYWASTRESGVPDRFTGSGSGTDFTLTISSVQAEDLAVYYCTQSYHLRTFGGGTKLEIK ?
A: 76
